System: Schistosoma mansoni
Test: Day 50% survival of worms in culture of HC resistant Schistosoma mansoni
Type: functional
Catalogue of Effect readings, one per entry.
Supply the numeric figure in days, leaving out any unit text.

{"structure notation": "CCN(CC)CCNc1ccc(COC(=O)NC)c2sc3ccccc3c(=O)c12", "target desc": "Schistosoma mansoni", "units label": "days", "Effect": 8}

Switching to the query record.
**Q:** Using known records, supply Effect for CCN(CC)CCNc1ccc(COC(=O)Nc2ccccc2)c2sc3ccccc3c(=O)c12
**A:** 12
